- tested.target: UniProtKB P35968
property.label: IC50

See these solved cases before continuing.
>  <compound>
COc1cc2nccc(Oc3ccc(NC(=S)NCC(F)F)c(Cl)c3)c2cc1C(N)=O

>  <tested.target>
UniProtKB P35968

>  <IC50>
< 50 nM

$$$$
>  <compound>
COc1cc2nccc(Oc3ccc(NC(=S)NC4(C(F)(F)F)CC4)c(Cl)c3)c2cc1C(N)=O

>  <tested.target>
UniProtKB P35968

>  <IC50>
200 to 1000 nM

$$$$
>  <compound>
CCOP(=O)(Cc1ccc(Oc2ccnc3cc(OC)c(C(N)=O)cc23)cc1Cl)NC1CC1 (centres unmarked)

>  <tested.target>
UniProtKB P35968

>  <IC50>
200 to 1000 nM

$$$$
>  <compound>
COc1ccc2c(Oc3ccc(NC(=S)NC4CC4)c(Cl)c3)ccnc2c1

>  <tested.target>
UniProtKB P35968

>  <IC50>
< 50 nM

$$$$
>  <compound>
COc1cc2nccc(Oc3cc(F)c(NC(=S)N4CCCC4)c(F)c3)c2cc1C(N)=O

>  <tested.target>
UniProtKB P35968

>  <IC50>
50 to 200 nM

$$$$
>  <compound>
COc1cc2nccc(Oc3ccc(NC(=S)N4CCC(F)(F)CC4)c(Cl)c3)c2cc1C(N)=O

>  <tested.target>
UniProtKB P35968

>  <IC50>
50 to 200 nM

$$$$

// fetch UniProtKB P35968 IC50 for COc1cc2nccc(Oc3ccc(NC(=S)NC4CC4)c(Cl)c3F)c2cc1C(N)=O
< 50 nM

// fetch UniProtKB P35968 IC50 for CCN(CC)CCCNC(=O)c1cc2c(Oc3ccc(NC(=S)NC4CC4)c(Cl)c3)ccnc2cc1OC
50 to 200 nM

----------
pIC50: −log10 of the molar value.
These compounds were tested on VEGFR2 (Homo sapiens); pIC50 is the recorded read-out.
Sequence (P35968 20-1356): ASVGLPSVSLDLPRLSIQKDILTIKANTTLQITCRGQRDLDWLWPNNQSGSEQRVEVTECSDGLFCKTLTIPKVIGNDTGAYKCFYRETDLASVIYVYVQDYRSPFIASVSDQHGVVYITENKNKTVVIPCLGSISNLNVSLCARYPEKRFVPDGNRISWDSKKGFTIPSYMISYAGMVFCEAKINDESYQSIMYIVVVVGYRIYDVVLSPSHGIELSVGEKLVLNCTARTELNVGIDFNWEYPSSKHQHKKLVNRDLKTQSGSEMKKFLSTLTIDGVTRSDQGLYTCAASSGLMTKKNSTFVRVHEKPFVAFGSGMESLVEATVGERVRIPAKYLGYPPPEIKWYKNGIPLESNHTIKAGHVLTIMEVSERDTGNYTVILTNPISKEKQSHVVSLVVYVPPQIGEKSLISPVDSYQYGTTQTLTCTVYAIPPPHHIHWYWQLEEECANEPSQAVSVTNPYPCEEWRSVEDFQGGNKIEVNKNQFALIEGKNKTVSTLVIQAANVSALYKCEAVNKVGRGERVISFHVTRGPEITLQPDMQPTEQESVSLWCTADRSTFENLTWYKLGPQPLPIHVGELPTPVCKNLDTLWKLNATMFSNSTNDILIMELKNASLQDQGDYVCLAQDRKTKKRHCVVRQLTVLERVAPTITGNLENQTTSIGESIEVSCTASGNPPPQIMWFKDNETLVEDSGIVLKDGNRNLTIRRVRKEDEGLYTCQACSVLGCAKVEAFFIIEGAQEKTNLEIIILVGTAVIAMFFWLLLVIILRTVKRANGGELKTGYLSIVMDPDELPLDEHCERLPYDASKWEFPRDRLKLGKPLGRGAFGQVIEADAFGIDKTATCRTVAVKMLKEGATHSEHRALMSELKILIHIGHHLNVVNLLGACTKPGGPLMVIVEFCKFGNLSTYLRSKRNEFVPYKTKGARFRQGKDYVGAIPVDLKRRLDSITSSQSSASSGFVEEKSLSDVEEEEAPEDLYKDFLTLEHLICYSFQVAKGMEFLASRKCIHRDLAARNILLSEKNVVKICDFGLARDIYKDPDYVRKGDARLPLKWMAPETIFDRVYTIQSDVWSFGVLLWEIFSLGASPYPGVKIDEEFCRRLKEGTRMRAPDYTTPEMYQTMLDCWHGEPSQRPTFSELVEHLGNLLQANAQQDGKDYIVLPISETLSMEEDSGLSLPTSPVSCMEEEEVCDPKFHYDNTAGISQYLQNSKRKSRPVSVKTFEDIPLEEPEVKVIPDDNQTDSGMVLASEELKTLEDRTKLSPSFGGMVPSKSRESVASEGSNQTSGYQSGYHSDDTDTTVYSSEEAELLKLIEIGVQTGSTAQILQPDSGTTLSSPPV

See these solved cases before continuing.
>  <smi>
COc1cc2nccc(Oc3ccc(NC(=S)NC4CC4)c(Cl)c3)c2cc1C(=O)NO

>  <test.result>
> 7.30

$$$$
>  <smi>
COc1cc2ncc(Cl)c(Oc3ccc(NC(=S)NC4CC4)c(Cl)c3)c2cc1C(N)=O

>  <test.result>
6.00 to 6.70

$$$$
>  <smi>
COc1cc2nccc(Oc3ccc(Nc4c(NCCc5ccccc5)c(=O)c4=O)c(Cl)c3)c2cc1C(N)=O

>  <test.result>
6.00 to 6.70

$$$$
>  <smi>
CCOCCCOc1cc2nccc(Oc3ccc(NC(=S)NC4CC4)c(Cl)c3)c2cc1C(N)=O

>  <test.result>
> 7.30

$$$$
>  <smi>
COc1cc2nccc(Oc3ccc(NC(=S)NC4CC4)c(Cl)c3)c2cc1C(C)(C)O

>  <test.result>
6.00 to 6.70

$$$$

I am curious: what pIC50 value has been reported for COc1cc2nccc(Oc3ccc(NC(=S)N[C@H](C)CO)c(Cl)c3)c2cc1C(N)=O ?
> 7.30

I am curious: what pIC50 value has been reported for COC(=O)c1cc2c(Oc3ccc(NC(=S)N4CC(F)(F)C4)c(Cl)c3)ccnc2cc1OC ?
6.00 to 6.70

I am curious: what pIC50 value has been reported for COc1cc2nccc(Oc3ccc(NC(=S)N[C@@H](C)CO)c(Cl)c3)c2cc1C(N)=O ?
6.70 to 7.30
